Where these numbers come from: the supplement of paper PMC11246515

Assay: total protein half-life in vivo (active degradation + dilution); higher = more stable protein
Settings: E. coli NCM3722 delta-lon; growth: N-lim chemostat; doubling time 6 h
Decision: total protein half-life in vivo compared against 6 h; not below it gives t, below it gives f.

>  <RECORD SEQUENCE>
MPWIQLKLNTTGANAEDLSDALMEAGAVSITFQDTHDTPVFEPLPGETRLWGDTDVIGLFDAETDMNDVVAILENHPLLGAGFAHKIEQLEDKDWEREWMDNFHPMRFGERLWICPSWRDVPDENAVNVMLDPGLAFGTGTHPTTSLCLQWLDSLDLTGKTVIDFGCGSGILAIAALKLGAAKAIGIDIDPQAIQASRDNAERNGVSDRLELYLPKDQPEEMKADVVVANILAGPLRELAPLISVLPVSGGLLGLSGILASQAESVCEAYADSFALDPVVEKEEWCRITGRKN [P0A8T1]

>  <LABEL VALUE>
f

$$$$
>  <RECORD SEQUENCE>
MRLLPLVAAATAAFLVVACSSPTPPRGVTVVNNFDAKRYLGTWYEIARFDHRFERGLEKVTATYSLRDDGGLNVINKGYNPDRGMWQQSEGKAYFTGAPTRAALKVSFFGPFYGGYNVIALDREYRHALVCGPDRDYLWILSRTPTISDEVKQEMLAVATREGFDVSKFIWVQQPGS [P0A901]

>  <LABEL VALUE>
t

$$$$
>  <RECORD SEQUENCE>
MARARGRGRRDLKSEINIVPLLDVLLVLLLIFMATAPIITQSVEVDLPDATESQAVSSNDNPPVIVEVSGIGQYTVVVEKDRLERLPPEQVVAEVSSRFKANPKTVFLIGGAKDVPYDEIIKALNLLHSAGVKSVGLMTQPI [P0ABV6]

>  <LABEL VALUE>
f

$$$$
>  <RECORD SEQUENCE>
MGQRIPVTLGNIAPLSLRPFQPGRIALVCEGGGQRGIFTAGVLDEFMRAQFNPFDLYLGTSAGAQNLSAFICNQPGYARKVIMRYTTKREFFDPLRFVRGGNLIDLDWLVEATASQMPLQMDTAARLFDSGKSFYMCACRQDDYAPNYFLPTKQNWLDVIRASSAIPGFYRSGVSLEGINYLDGGISDAIPVKEAARQGAKTLVVIRTVPSQMYYTPQWFKRMERWLGDSSLQPLVNLVQHHETSYRDIQQFIEKPPGKLRIFEIYPPKPLHSIALGSRIPALREDYKLGRLCGRYFLATVGKLLTEKAPLTRHLVPVVTPESIVIPPAPVANDTLVAEVSDAPQANDPTFNNEDLA

>  <LABEL VALUE>
f

$$$$
>  <RECORD SEQUENCE>
MTDNPNKKTFWDKVHLDPTMLLILLALLVYSALVIWSASGQDIGMMERKIGQIAMGLVIMVVMAQIPPRVYEGWAPYLYIICIILLVAVDAFGAISKGAQRWLDLGIVRFQPSEIAKIAVPLMVARFINRDVCPPSLKNTGIALVLIFMPTLLVAAQPDLGTSILVALSGLFVLFLSGLSWRLIGVAVVLVAAFIPILWFFLMHDYQRQRVMMLLDPESDPLGAGYHIIQSKIAIGSGGLRGKGWLHGTQSQLEFLPERHTDFIFAVLAEELGLVGILILLALYILLIMRGLWIAARAQTTFGRVMAGGLMLILFVYVFVNIGMVSGILPVVGVPLPLVSYGGSALIVLMAGFGIVMSIHTHRKMLSKSV [P0ABG7]

>  <LABEL VALUE>
f

$$$$
>  <RECORD SEQUENCE>
MKALARFGKAFGGYKMIDVPQPMCGPEDVVIEIKAAAICGADMKHYNVDSGSDEFNSIRGHEFAGCIAQVGEKVKDWKVGQRVVSDNSGHVCGVCPACEQGDFLCCTEKVNLGLDNNTWGGGFSKYCLVPGEILKIHRHALWEIPDGVDYEDAAVLDPICNAYKSIAQQSKFLPGQDVVVIGTGPLGLFSVQMARIMGAVNIVVVGLQEDVAVRFPVAKELGATAVVNGSTEDVVARCQQICGKDNLGLVIECSGANIALKQAIEMLRPNGEVVRVGMGFKPLDFSINDITAWNKSIIGHMAYDSTSWRNAIRLLASGAIKVKPMITHRIGLSQWREGFDAMVDKTAIKVIMTYDFDE

>  <LABEL VALUE>
f

$$$$
>  <RECORD SEQUENCE>
MIEKIWSGESPLWRLLLPLSWLYGLVSGAIRLCYKLKLKRAWRAPVPVVVVGNLTAGGNGKTPVVVWLVEQLQQRGIRVGVVSRGYGGKAESYPLLLSADTTTAQAGDEPVLIYQRTDAPVAVSPVRSDAVKAILAQHPDVQIIVTDDGLQHYRLARDVEIVVIDGVRRFGNGWWLPAGPMRERAGRLKSVDAVIVNGGVPRSGEIPMHLLPGQAVNLRTGTRCDVAQLEHVVAMAGIGHPPRFFATLKMCGVQPEKCVPLADHQSLNHADVSALVSAGQTLVMTEKDAVKCRAFAEENWWYLPVDAQLSGDEPAKLLTQLTLLASGN

>  <LABEL VALUE>
t

$$$$
>  <RECORD SEQUENCE>
MWIGIISLFPEMFRAITDYGVTGRAVKNGLLSIQSWSPRDFTHDRHRTVDDRPYGGGPGMLMMVQPLRDAIHAAKAAAGEGAKVIYLSPQGRKLDQAGVSELATNQKLILVCGRYEGIDERVIQTEIDEEWSIGDYVLSGGELPAMTLIDSVSRFIPGVLGHEASATEDSFAEGLLDCPHYTRPEVLEGMEVPPVLLSGNHAEIRRWRLKQSLGRTWLRRPELLENLALTEEQARLLAEFKTEHAQQQHKHDGMA [P0A873]

>  <LABEL VALUE>
f

$$$$
>  <RECORD SEQUENCE>
MPVRASIEPLTWENAFFGVNSAIVRITSEAPLLTPDALAPWSRVQAKIAASNTGELDALQQLGFSLVEGEVDLALPVNNASDSGAVVAQETDIPALRQLASAAFAQSRFRAPWYAPDASSRFYAQWIENAVRGTFDHQCLILRAASGDIRGYVSLRELNATDARIGLLAGRGAGAELMQTALNWAYARGKTTLRVATQMGNTAALKRYIQSGANVESTAYWLYR

>  <LABEL VALUE>
f

$$$$
>  <RECORD SEQUENCE>
MLDQVCQLARNAGDAIMQVYDGTKPMDVVSKADNSPVTAADIAAHTVIMDGLRTLTPDVPVLSEEDPPGWEVRQHWQRYWLVDPLDGTKEFIKRNGEFTVNIALIDHGKPILGVVYAPVMNVMYSAAEGKAWKEECGVRKQIQVRDARPPLVVISRSHADAELKEYLQQLGEHQTTSIGSSLKFCLVAEGQAQLYPRFGPTNIWDTAAGHAVAAAAGAHVHDWQGKPLDYTPRESFLNPGFRVSIY

>  <LABEL VALUE>
f

$$$$
